Value source: the supplement of paper PMC6992640

Recorded cell viability for the following compounds
# System: HCI09 (cells of a triple-negative luminal androgen receptor type breast cancer xenograft)
# testDescription: cell viability (% of vehicle); higher = less cytotoxic
# assaySetup: 10 µM; 72 h

Please review the entries below; each comes with its answer.
CC(C)(C)c1ccc(C(=O)CCCN2CCC(OC(c3ccccc3)c3ccccc3)CC2)cc1: 53.2
CCCN(CCC)C(=O)C1=Cc2ccc(-c3ccc(C(=O)N4CCCC4)cc3)cc2NC(=N)C1: 32.1
CCN1CCN(c2cc3c(cc2F)c(=O)c(C(=O)O)cn3C2CC2)CC1: 99.9
O=C(C=Cc1ccc(O)c(O)c1)OC1CC(O)(C(=O)O)CC(O)C1O (stereo not given): 119
O=c1ccc2ccccc2o1: 99.9

Continue with the compound presented below.
Query: cell viability; subject: "CC(=O)Oc1cc(C(F)(F)F)ccc1C(=O)O"
97

* * *

# Test system: WHIM30 (cells of a triple-negative basal-like breast cancer xenograft)
# testDescription: cell viability (% of vehicle); higher = less cytotoxic
# assaySetup: 10 µM; 72 h
Exam item: assign met to entries whose cell viability is below 100 and not met to entries at or above 100. Note that a value of exactly 100 receives not met.

Recorded results for 8 compounds are shown here.
CCC(=C(CC)c1ccc(O)cc1)c1ccc(O)cc1 [Diethylstilbestrol]: met
COc1cc(Nc2nc3ccccc3nc2NS(=O)(=O)c2ccc(NC(=O)c3ccc(C)c(OC)c3)cc2)cc(OC)c1: met
c1coc(CNc2ncnc3nc[nH]c23)c1 [Kinetin]: not met
O=C([O-])Cc1ccccc1Nc1c(Cl)cccc1Cl.[K+] [Diclofenac Potassium]: not met
CN1CCCC1CCOC(C)(c1ccccc1)c1ccc(Cl)cc1.O=C(O)C=CC(=O)O (stereo not drawn) [Clemastine Fumarate]: not met
COc1cccc2c1C(=O)c1c(O)c3c(c(O)c1C2=O)C[C@@](O)(C(C)=O)C[C@@H]3O[C@H]1C[C@H](N)[C@H](O)[C@H](C)O1.Cl [Daunorubicin HCl]: met
CC[C@]1(O)C[C@H]2CN(CCc3c([nH]c4ccccc34)[C@@](C(=O)OC)(c3cc4c(cc3OC)N(C=O)[C@H]3[C@@](O)(C(=O)OC)C(OC(C)=O)[C@]5(CC)C=CCN6CC[C@]43C65)C2)C1.O=S(=O)(O)O (stereo partly drawn) [Vincristine]: not met
Oc1ccc(C2CNCCc3c2cc(O)c(O)c3Cl)cc1 (stereo not drawn) [Fenoldopam]: not met

Given the entry C=C1C(CO)C(O)CC1n1cnc2c(=O)nc(N)[nH]c21.O (stereo not drawn) [Entecavir Hydrate] , would its reported cell viability be below 100?
not met

Given the entry CC(C)NCC(O)COc1ccc(CCOCC2CC2)cc1.Cl (stereo not drawn) [Levobetaxolol HCl] , would its reported cell viability be below 100?
not met

Given the entry COC1=CC(=O)C[C@@H](C)[C@]12Oc1c(Cl)c(OC)cc(OC)c1C2=O [Griseofulvin] , would its reported cell viability be below 100?
not met

Given the entry O=C(O)[C@H](O)[C@@H](O)C(=O)O.c1cnc2cc3c(cc2n1)C1CNC[C@@H]3C1 [Varenicline Tartrate] , would its reported cell viability be below 100?
not met

* * *

# Tested on: HCI16 (cells of a triple-negative basal-like breast cancer xenograft)
# testDescription: cell viability (% of vehicle); higher = less cytotoxic
# assaySetup: 10 µM; 72 h
Where a name gives a salt, the structure may show the parent alone.
propertyLabel: cell viability

CCN(CC)CCOC(=O)C1(C2CCCCC2)CCCCC1.Cl [Dicyclomine HCl]: 141
CCCN(CCC)S(=O)(=O)c1ccc(C(=O)O)cc1 [Probenecid]: 145
NC(=O)c1ncn(C2OC(CO)C(O)C2O)c1O (centres undefined) [Mizoribine]: 87.7
Cc1noc(NS(=O)(=O)c2ccc(N)cc2)c1C [Sulfisoxazole]: 112
COc1cc2nc(N3CCN(C(=O)C4CCCO4)CC3)nc(N)c2cc1OC.Cl.O.O (centres undefined) [Terazosin HCl]: 123
COc1cc2nccc(Oc3ccc(NC(=O)C4(C(=O)Nc5ccc(F)cc5)CC4)cc3)c2cc1OC.O=C(O)CC(O)C(=O)O [Cabozantinib malate (XL184)]: 63.4
N[C@@H](CCC(=O)N[C@@H](CS)C(=O)NCC(=O)O)C(=O)O [L-Glutathione Reduced]: 113
CNNCc1ccc(C(=O)NC(C)C)cc1.Cl [Procarbazine HCl]: 87.6
NC(=O)N1c2ccccc2C=Cc2ccccc21 [Carbamazepine]: 99.6
Clc1ccc(CCC(Cn2ccnc2)Sc2c(Cl)cccc2Cl)cc1.O=[N+]([O-])O (centres undefined) [Butoconazole nitrate]: 186

Query: cell viability; subject: CN(C)CCC(c1ccc(Cl)cc1)c1ccccn1.O=C(O)C=CC(=O)O (centres undefined) [Chlorpheniramine Maleate]
126

Query: cell viability; subject: NC(=O)c1cn(Cc2c(F)cccc2F)nn1 [Rufinamide]
106

Query: cell viability; subject: COc1cccc2c1C(=O)c1c(O)c3c(c(O)c1C2=O)CC(O)(C(=O)CO)CC3OC1CC(N)C(O)C(C)O1 (centres undefined) [Doxorubicin]
60.4

Query: cell viability; subject: C[N+](C)(C)CC(O)CC(=O)[O-] [L-Carnitine inner salt]
114

* * *

# Tested on: WHIM2 (cells of a triple-negative basal-like breast cancer xenograft)
# testDescription: cell viability (% of vehicle); higher = less cytotoxic
# assaySetup: 10 µM; 72 h
Exam item: assign 1 to entries whose cell viability is below 100 and -1 to entries at or above 100. Note that a value of exactly 100 receives -1.

CC1(C)SC2C(NC(=O)C(C(=O)[O-])c3ccccc3)C(=O)N2C1C(=O)[O-].[Na+].[Na+] (stereo unspecified) [Carbenicillin, Disodium Salt]: -1
CNC(=O)CN(CCN(CCN(CC(=O)[O-])CC(=O)NC)CC(=O)[O-])CC(=O)[O-].O.[Gd+3] [Gadodiamide]: 1
C#CC1(O)CCC2C3CCc4cc(OC)ccc4C3CCC21C (stereo unspecified) [Mestranol]: -1

Given the entry c1ccc(-c2ccc(C(c3ccccc3)n3ccnc3)cc2)cc1 (stereo unspecified) [Bifonazole] , would its reported cell viability be below 100?
-1

Given the entry COc1cc(C)c(C=CC(C)=CC=CC(C)=CC(=O)O)c(C)c1C [Acitretin] , would its reported cell viability be below 100?
1

Given the entry O=c1sn(-c2cccc3ccccc23)c(=O)n1Cc1ccccc1 [Tideglusib] , would its reported cell viability be below 100?
1

Given the entry CN(C)CC(c1ccc(O)cc1)C1(O)CCCCC1.O.O=C(O)CCC(=O)O (stereo unspecified) [Desvenlafaxine Succinate] , would its reported cell viability be below 100?
-1

Given the entry C=C1C(=CC=C2CCCC3(C)C2CCC3C(C)CCCC(C)(C)O)CC(O)CC1O (stereo unspecified) [Calcitriol] , would its reported cell viability be below 100?
1

Given the entry COc1ccc(C2CNC(=O)C2)cc1OC1CCCC1 (stereo not drawn) [S- (+)-Rolipram] , would its reported cell viability be below 100?
-1

Given the entry Cc1cn(C2C=CC(CO)O2)c(=O)[nH]c1=O (stereo unspecified) [Stavudine (d4T)] , would its reported cell viability be below 100?
1

* * *

Recorded cell viability for the following molecules
# Tested on: HCI16
# testDescription: cell viability (% of vehicle); higher = less cytotoxic
# assaySetup: 10 µM; 72 h
Number only, no unit.

Please review the entries below; each comes with its answer.
COC(c1ccccc1)(c1ccccc1)C(Oc1nc(C)cc(C)n1)C(=O)O (centres undefined): 106
COC1C(O)CC(=O)OC(C)CC=CC=CC(OC2CCC(N(C)C)C(C)O2)C(C)CC(CC=O)C1OC1OC(C)C(OC2CC(C)(O)C(O)C(C)O2)C(N(C)C)C1O (centres undefined): 138
CC1c2cccc(O)c2C(O)=C2C(=O)C3(O)C(O)=C(C(N)=O)C(=O)C(N(C)C)C3C(O)C21.Cl (centres undefined) [Doxycycline HCl]: 104
CC(C)(C)NC(=O)C1CCC2C3CCC4NC(=O)C=CC4(C)C3CCC12C (centres undefined) [Finasteride]: 99.8
Nc1ncnc2c1ncn2C1OC(CO)C(O)C1O (centres undefined): 96.1

Query: cell viability; subject: CCCNC(=O)NS(=O)(=O)c1ccc(Cl)cc1 [Chlorpropamide]
105

Query: cell viability; subject: "CC(=O)[C@@]1(O)CC[C@H]2[C@@H]3CCC4=CC(=O)CCC4=C3[C@@H](c3ccc(N(C)C)cc3)C[C@@]21C"
118

Query: cell viability; subject: Cl.O=C1CN2Cc3c(ccc(Cl)c3Cl)NC2=N1 [Anagrelide HCl]
103

Query: cell viability; subject: Nc1ccn(C2OC(CO)C(O)C2(F)F)c(=O)n1 (centres undefined)
64.7

* * *

# Tested on: HCI01 (cells of a triple-negative basal-like breast cancer xenograft)
# testDescription: cell viability of combination (% of vehicle); higher = less cytotoxic
# assaySetup: 1 µM; 72 h; partner dose: 10 nM
propertyLabel: cell viability of combination

Please review the entries below; each comes with its answer.
COc1cc2nccc(Oc3ccc(NC(=O)NC4CC4)c(Cl)c3)c2cc1C(N)=O [Lenvatinib (E7080)] + CC(C)C[C@H](NC(=O)[C@H](CCc1ccccc1)NC(=O)CN1CCOCC1)C(=O)N[C@@H](Cc1ccccc1)C(=O)N[C@@H](CC(C)C)C(=O)[C@@]1(C)CO1: 97.9
CC(CCC(=O)O)C1CCC2C3CCC4CC(O)CCC4(C)C3CCC12C (centres undefined) [Lithocholic Acid] + CC(C)C[C@H](NC(=O)[C@H](CCc1ccccc1)NC(=O)CN1CCOCC1)C(=O)N[C@@H](Cc1ccccc1)C(=O)N[C@@H](CC(C)C)C(=O)[C@@]1(C)CO1: 67.4
Cl.Nc1ccn(C2OC(CO)C(O)C2O)c(=O)n1 (centres undefined) [Cytarabine hydrochloride] + CC(C)C[C@H](NC(=O)[C@H](CCc1ccccc1)NC(=O)CN1CCOCC1)C(=O)N[C@@H](Cc1ccccc1)C(=O)N[C@@H](CC(C)C)C(=O)[C@@]1(C)CO1: 65.5

Continue with the molecule presented below.
Query: cell viability of combination; subject: Clc1ccc(C(Cn2ccnc2)OCc2ccsc2Cl)c(Cl)c1 (centres undefined) [Tioconazole] + CC(C)C[C@H](NC(=O)[C@H](CCc1ccccc1)NC(=O)CN1CCOCC1)C(=O)N[C@@H](Cc1ccccc1)C(=O)N[C@@H](CC(C)C)C(=O)[C@@]1(C)CO1
88.4
